- EXPERIMENTAL_SYSTEM: Muscarinic acetylcholine receptor M4 (Homo sapiens, UniProt P08173)
- Sequence (P08173 whole entry): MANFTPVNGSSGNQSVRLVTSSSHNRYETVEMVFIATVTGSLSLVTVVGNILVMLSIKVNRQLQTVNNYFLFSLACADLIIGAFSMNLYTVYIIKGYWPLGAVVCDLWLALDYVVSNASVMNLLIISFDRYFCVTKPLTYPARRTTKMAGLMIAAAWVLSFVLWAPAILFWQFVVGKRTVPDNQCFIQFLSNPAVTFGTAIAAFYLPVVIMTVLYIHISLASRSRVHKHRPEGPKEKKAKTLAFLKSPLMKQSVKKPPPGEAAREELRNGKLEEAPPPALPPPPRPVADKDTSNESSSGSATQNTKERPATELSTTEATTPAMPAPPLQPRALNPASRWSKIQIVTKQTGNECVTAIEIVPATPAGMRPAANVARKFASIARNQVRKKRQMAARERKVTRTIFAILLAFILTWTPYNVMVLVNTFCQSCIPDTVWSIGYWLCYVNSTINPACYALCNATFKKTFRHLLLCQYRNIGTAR
pKi: −log10 of the molar value.
MEASURE_NAME: pKi

I would be grateful if you could share the reported pKi for O=S(=O)(NCCCCN1CCC(c2noc3cc(F)ccc23)CC1)c1cc2ccccc2s1 . < 6.00

====

- EXPERIMENTAL_SYSTEM: 5-hydroxytryptamine receptor 6 (Homo sapiens, UniProt P50406)
- Sequence (P50406 whole entry): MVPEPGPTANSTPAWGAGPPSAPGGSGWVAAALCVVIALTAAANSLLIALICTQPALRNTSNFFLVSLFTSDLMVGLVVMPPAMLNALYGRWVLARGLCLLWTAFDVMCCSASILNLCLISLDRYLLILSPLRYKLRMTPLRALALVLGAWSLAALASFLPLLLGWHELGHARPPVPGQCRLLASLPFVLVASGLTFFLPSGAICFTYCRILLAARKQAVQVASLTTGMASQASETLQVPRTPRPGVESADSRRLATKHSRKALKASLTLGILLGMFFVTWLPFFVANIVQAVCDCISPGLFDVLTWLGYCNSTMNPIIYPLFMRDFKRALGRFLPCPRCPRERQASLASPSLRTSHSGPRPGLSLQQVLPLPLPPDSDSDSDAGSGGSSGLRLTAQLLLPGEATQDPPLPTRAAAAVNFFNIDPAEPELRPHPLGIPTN
- PROCEDURE_TEXT: biochemical
MEASURE_NAME: Ki (µM)
I only need the number, in µM, no unit after it.

In the examples that follow, each entry is paired with its recorded Ki.
MOLECULE_SMILES: O=S(=O)(NCCCN1CCC(c2noc3cc(F)ccc23)CC1)c1cnc2ccccn12
Ki, µM: 0.1
--
MOLECULE_SMILES: O=S(=O)(NCCCN1CCC(c2noc3cc(F)ccc23)CC1)c1cccs1
Ki, µM: 0.066
--
MOLECULE_SMILES: O=S(=O)(NCCCN1CCC(c2noc3cc(F)ccc23)CC1)c1ccc2ccccc2c1
Ki, µM: 0.032
--
MOLECULE_SMILES: O=S(=O)(NCCCN1CCN(c2noc3ccccc23)CC1)c1cc2ccc(Cl)cc2s1
Ki, µM: 0.56
--
MOLECULE_SMILES: O=S(=O)(NCCCCN1CCN(c2nsc3ccccc23)CC1)c1ccc(Cl)c(Cl)c1
Ki, µM: 0.071

I would be grateful if you could share the reported Ki for O=S(=O)(NCCCCN1CCN(c2nsc3ccccc23)CC1)c1cc2ccccc2s1 . 0.033

# repeat for O=S(=O)(NCCCN1CCC(c2noc3cc(F)ccc23)CC1)c1cccc2scnc12 0.023

# repeat for O=S(=O)(NCCCCN1CCN(c2nsc3ccccc23)CC1)c1ccc2cc(Cl)ccc2c1 0.061

# repeat for O=S(=O)(NCCCN1CCC(c2noc3cc(F)ccc23)CC1)c1cc2ccccc2s1 0.04

# repeat for O=S(=O)(NCCCN1CCN(c2nsc3ccccc23)CC1)c1cnc2ccccn12 0.084

# repeat for O=S(=O)(NCCCN1CCN(c2noc3ccccc23)CC1)c1ccc(F)c(Cl)c1 0.33

====

Each entry below carries its reported Ki.
- EXPERIMENTAL_SYSTEM: 5-hydroxytryptamine receptor 6 (Homo sapiens)
- PROCEDURE_TEXT: biochemical
I only need the number, in nM, no unit after it.

In the examples that follow, each entry is paired with its recorded Ki.
MOLECULE_SMILES: O=S(=O)(NCCCN1CCC(c2noc3cc(F)ccc23)CC1)c1cccc2ccccc12
VALUE_UNIT: nM
Ki: 83

MOLECULE_SMILES: O=S(=O)(NCCN1CCC(c2noc3cc(F)ccc23)CC1)c1cccc2ccccc12
VALUE_UNIT: nM
Ki: 250

MOLECULE_SMILES: Cc1cccc(S(=O)(=O)NCCCCN2CCN(c3nsc4ccccc34)CC2)c1
VALUE_UNIT: nM
Ki: 100

Identify the measured Ki of O=S(=O)(NCCCCN1CCC(c2noc3cc(F)ccc23)CC1)c1ccc(OC(F)(F)F)cc1 for 5-hydroxytryptamine receptor 6 (Homo sapiens). 23

# repeat for O=S(=O)(NCCCCN1CCC(c2noc3cc(F)ccc23)CC1)c1ccc2cc(Cl)ccc2c1 2.4

# repeat for O=S(=O)(NCCCN1CCC(c2noc3cc(F)ccc23)CC1)c1ccc(OC(F)(F)F)cc1 35

# repeat for O=S(=O)(NCCCCN1CCC(c2noc3cc(F)ccc23)CC1)c1cccs1 130

# repeat for Cc1cccc(S(=O)(=O)NCCCCN2CCN(c3noc4ccccc34)CC2)c1 87

# repeat for Cc1c(S(=O)(=O)NCCCCN2CCN(c3nsc4ccccc34)CC2)sc2ccc(F)cc12 54

====

- EXPERIMENTAL_SYSTEM: 5-hydroxytryptamine receptor 6 (Homo sapiens)
- PROCEDURE_TEXT: biochemical
Each entry below carries its reported Ki.
# output: numeric value plus its unit

In the examples that follow, each entry is paired with its recorded Ki.
MOLECULE_SMILES: O=S(=O)(NCCCCN1CCN(c2noc3ccccc23)CC1)c1ccc(Cl)c(Cl)c1
RESULT: 29 nM

MOLECULE_SMILES: O=S(=O)(NCCCCN1CCN(c2nsc3ccccc23)CC1)c1cc2ccc(Cl)cc2s1
RESULT: 45 nM

I would be grateful if you could share the reported Ki for Cc1cccc(S(=O)(=O)NCCN2CCC(c3noc4cc(F)ccc34)CC2)c1 . 210 nM

====

- EXPERIMENTAL_SYSTEM: 5-hydroxytryptamine receptor 2A (Homo sapiens, UniProt P28223)
- Sequence (P28223 whole entry): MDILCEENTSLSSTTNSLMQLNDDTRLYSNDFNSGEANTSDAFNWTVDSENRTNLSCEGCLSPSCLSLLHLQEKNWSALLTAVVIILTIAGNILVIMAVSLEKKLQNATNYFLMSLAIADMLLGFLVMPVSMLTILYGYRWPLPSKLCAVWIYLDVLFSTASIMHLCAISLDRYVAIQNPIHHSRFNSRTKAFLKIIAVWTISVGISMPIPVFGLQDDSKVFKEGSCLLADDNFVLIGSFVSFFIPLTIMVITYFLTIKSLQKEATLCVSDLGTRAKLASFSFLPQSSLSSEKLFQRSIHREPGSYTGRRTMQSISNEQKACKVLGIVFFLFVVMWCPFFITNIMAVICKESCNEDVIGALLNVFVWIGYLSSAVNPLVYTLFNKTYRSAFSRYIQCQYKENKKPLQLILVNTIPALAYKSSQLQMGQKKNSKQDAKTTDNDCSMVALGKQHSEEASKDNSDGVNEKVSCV
- PROCEDURE_TEXT: Antagonist activity at human recombinant 5-HT2A receptor expressed in CHO-K1 cells assessed as inhibition of alpha-methyl serotonin-induced response treated 15 to 30 mins before agonist challenge by luminescence analysis
- Assay type: cell-based
Label MET for high-side Kb (at or above 20 nM) and NOT MET for low-side Kb (below it).

Examples from the recorded data:
MOLECULE_SMILES: Cc1c(S(=O)(=O)NCCCCN2CCC(c3noc4cc(F)ccc34)CC2)sc2ccc(F)cc12
CATEGORY_LABEL: NOT MET
--
MOLECULE_SMILES: O=S(=O)(NCCCN1CCC(c2noc3cc(F)ccc23)CC1)c1ccc(Cl)c(Cl)c1
CATEGORY_LABEL: MET
--
MOLECULE_SMILES: O=S(=O)(NCCCCN1CCC(c2noc3cc(F)ccc23)CC1)c1cccc2ccccc12
CATEGORY_LABEL: MET
--
MOLECULE_SMILES: O=S(=O)(NCCCCN1CCC(c2noc3cc(F)ccc23)CC1)c1cc2ccc(Cl)cc2s1
CATEGORY_LABEL: MET
--
MOLECULE_SMILES: O=S(=O)(NCCCCN1CCC(c2noc3cc(F)ccc23)CC1)c1ccc2ccccc2c1
CATEGORY_LABEL: NOT MET

Evaluate O=S(=O)(NCCCN1CCC(c2noc3cc(F)ccc23)CC1)c1ccc(F)c(Cl)c1 : Kb at minimum 20 nM? NOT MET

# repeat for Cc1c(S(=O)(=O)NCCCCN2CCC(c3noc4cc(F)ccc34)CC2)sc2ccc(Cl)cc12 NOT MET

# repeat for O=S(=O)(NCCCCN1CCC(c2noc3cc(F)ccc23)CC1)c1ccc2cc(Cl)ccc2c1 NOT MET

# repeat for Cc1cccc(S(=O)(=O)NCCCN2CCC(c3noc4cc(F)ccc34)CC2)c1 NOT MET

# repeat for O=S(=O)(NCCCCN1CCC(c2noc3cc(F)ccc23)CC1)c1cc2ccccc2s1 NOT MET

# repeat for O=S(=O)(NCCCCN1CCN(c2noc3ccccc23)CC1)c1ccc2ccccc2c1 NOT MET

# repeat for O=S(=O)(NCCCCN1CCN(c2nsc3ccccc23)CC1)c1ccc2ccccc2c1 MET

====

Each entry below carries its reported pKi.
- EXPERIMENTAL_SYSTEM: UniProt:P34969
- Sequence (P34969 whole entry): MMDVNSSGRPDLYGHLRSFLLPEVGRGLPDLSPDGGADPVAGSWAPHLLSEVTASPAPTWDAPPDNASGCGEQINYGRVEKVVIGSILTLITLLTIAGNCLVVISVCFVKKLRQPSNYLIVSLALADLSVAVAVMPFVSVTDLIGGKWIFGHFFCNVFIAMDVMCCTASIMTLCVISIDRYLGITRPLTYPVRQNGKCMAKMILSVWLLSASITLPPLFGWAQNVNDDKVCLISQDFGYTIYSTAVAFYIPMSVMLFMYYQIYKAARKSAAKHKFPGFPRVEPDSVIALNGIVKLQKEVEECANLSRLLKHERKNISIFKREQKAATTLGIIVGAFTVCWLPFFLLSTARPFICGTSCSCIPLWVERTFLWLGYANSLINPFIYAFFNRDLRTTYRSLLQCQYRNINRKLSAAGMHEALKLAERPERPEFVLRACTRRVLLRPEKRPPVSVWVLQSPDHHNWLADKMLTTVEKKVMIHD
- PROCEDURE_TEXT: biochemical
- Assay type: cell-based, CHO-K1
Bear in mind: pKi is minus log10 of a mol/L concentration; give just that figure.

MOLECULE_SMILES: O=S(=O)(NCCCCN1CCN(c2nsc3ccccc23)CC1)c1cccs1
EXPERIMENTAL_SYSTEM: UniProt:P34969
pKi: 8.49

MOLECULE_SMILES: Cc1c(S(=O)(=O)NCCCCN2CCN(c3noc4ccccc34)CC2)sc2ccc(F)cc12
EXPERIMENTAL_SYSTEM: UniProt:P34969
pKi: 8.59

MOLECULE_SMILES: O=S(=O)(NCCCCN1CCC(c2noc3cc(F)ccc23)CC1)c1cc2ccc(Cl)cc2s1
EXPERIMENTAL_SYSTEM: UniProt:P34969
pKi: 8.89

MOLECULE_SMILES: O=S(=O)(NCCCCN1CCN(c2nsc3ccccc23)CC1)c1ccc2ccccc2c1
EXPERIMENTAL_SYSTEM: UniProt:P34969
pKi: 8.74

MOLECULE_SMILES: O=S(=O)(NCCCN1CCN(c2noc3ccccc23)CC1)c1ccc2ccccc2c1
EXPERIMENTAL_SYSTEM: UniProt:P34969
pKi: 6.92

MOLECULE_SMILES: O=S(=O)(NCCCCN1CCC(c2noc3cc(F)ccc23)CC1)c1cccs1
EXPERIMENTAL_SYSTEM: UniProt:P34969
pKi: 8.20

Kindly review the next compound as well.
I would be grateful if you could share the reported pKi for O=S(=O)(NCCCN1CCC(c2noc3cc(F)ccc23)CC1)c1cc2ccccc2s1 . 8.39
